assay: Cytotoxicity against human BC1 cells; format: functional, cell-based
Property label: IC50

Smiles text	Result value
Cc1c2ccncc2c(C)c2c1[nH]c1ccccc12	0.26 µg/mL
C=C1CC[C@@H]2O[C@]2(C)CC[C@@H]2[C@@H]1CC2(C)C	> 5 µg/mL
CCCCC#CC#CC#CCCCCCCCC(=O)O	13 µg/mL
C/C1=C\CC/C(C)=C/CC(C)(C)/C=C/C1	> 5 µg/mL
COc1ccc(C[C@H]2c3cc(OC)c(OC)cc3CCN2C)cc1O	> 5 µg/mL
COc1cc2c(cc1O)[C@H](Cc1ccc(OC)c(OC)c1)N(C)CC2	> 5 µg/mL

###

tested on: Mycobacterium tuberculosis; test: Antituberculosis activity against Mycobacterium tuberculosis H37Ra by microplate alamar blue assay; assay type: functional
MIC listing for selected molecules.

Molecule	Units text	MIC
CCCCC#CC#CC#CCCCCCCCC(=O)O	µg/mL	6.25
COc1ccc2c(c1)c(-c1c3c4c(cc5c(c4c4ccc(OC)cc14)OCO5)CCN3)c1c3c(cc4c(c32)OCO4)CCN1	µg/mL	6.25
NNC(=O)c1ccncc1	µg/mL	0.05
C/C1=C\CC/C(C)=C/CC(C)(C)/C=C/C1	µg/mL	6.25
NC[C@H]1O[C@H](O[C@H]2[C@H](O)[C@@H](O[C@H]3O[C@H](CO)[C@@H](O)[C@H](N)[C@H]3O)[C@H](N)C[C@@H]2N)[C@H](O)[C@@H](O)[C@@H]1O.O=S(=O)(O)O [KANAMYCIN SULFATE]	µg/mL	2.5
